biological target: ferroportin (Homo sapiens, UniProt Q9NP59); test: FPN activity assay: ferroportin-GFP internalization/degradation in HEK293 cells; assay type: cell-based; parameters: expressed in transfected cells; details: ferroportin-GFP internalization/degradation, HEK293 cells; Table 6E; read-out: FPN IC50
Sequence (Q9NP59 whole entry): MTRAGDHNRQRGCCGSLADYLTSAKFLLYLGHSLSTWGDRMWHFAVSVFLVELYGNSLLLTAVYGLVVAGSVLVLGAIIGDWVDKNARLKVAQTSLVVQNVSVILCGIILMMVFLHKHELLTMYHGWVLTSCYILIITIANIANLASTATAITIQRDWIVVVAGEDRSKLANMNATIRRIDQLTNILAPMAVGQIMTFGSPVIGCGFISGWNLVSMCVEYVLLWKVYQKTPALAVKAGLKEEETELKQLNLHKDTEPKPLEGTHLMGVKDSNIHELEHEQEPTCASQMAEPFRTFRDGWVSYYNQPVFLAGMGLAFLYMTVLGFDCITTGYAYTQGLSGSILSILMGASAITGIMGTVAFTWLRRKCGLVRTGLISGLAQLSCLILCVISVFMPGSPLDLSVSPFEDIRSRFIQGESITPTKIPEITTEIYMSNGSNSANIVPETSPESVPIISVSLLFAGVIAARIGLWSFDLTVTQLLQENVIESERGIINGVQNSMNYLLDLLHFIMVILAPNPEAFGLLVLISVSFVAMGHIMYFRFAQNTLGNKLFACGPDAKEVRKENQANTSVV
Positions of bridges follow the written chain, without caps; N, C: chain ends. Non-standard residues stand in square brackets, D forms with d. Residues, ends and D or L forms follow the SMILES beside them. Groups on a side chain read outwards from the residue. *: point of attachment. X1 = C[N+](C)(CCNC(=O)CCCCCCCCCCCCCCCCC(=O)O)CC(=O)*; C18 diacid = O=C(O)CCCCCCCCCCCCCCCCC(=O)*; Dip = N[C@H](C(=O)O)C(c1ccccc1)c1ccccc1; β3hF = N[C@H](CC(=O)O)Cc1ccccc1; NMeK = CN[C@@H](CCCCN)C(=O)O; Isovaleryl = CC(C)CC(=O)*; Dap = NC[C@H](N)C(=O)O; AEEA = NCCOCCOCC(=O)O; Ahx = NCCCCCC(=O)O
For each record, write down the corresponding DC50.

In the examples that follow, each entry is paired with its recorded DC50.
| compound | DC50 |
| --- | --- |
| COC(=O)CC[C@H](NC(=O)CC(C)C)C(=O)N[C@H](C(=O)N[C@@H](Cc1c[nH]cn1)C(=O)N[C@H](C(=O)N1CCC[C@H]1C(=O)N[C@H]1CSSC[C@@H](C(=O)N(C)[C@@H](CCCCNC(=O)COCCOCCNC(=O)COCCOCCNC(=O)[C@H](CN)NC(=O)CCCCCCCCCCCCCCCCC(=O)O)C(=O)N[C@H](CC(=O)N[C@H](CCCCN)C(N)=O)Cc2ccccc2)NC1=O)C(c1ccccc1)c1ccccc1)[C@@H](C)O [compound 305] (Isovaleryl-E(OMe)TH[Dip]PCC[NMeK]([AEEA-AEEA-Dap-C18 diacid])[β3hF][dK]-NH2; disulfide 6-7) | 10 to 100 nM |
| COC(=O)CC[C@H](NC(=O)CC(C)C)C(=O)N[C@H](C(=O)N[C@@H](Cc1c[nH]cn1)C(=O)N[C@H](C(=O)N1CCC[C@H]1C(=O)N[C@H]1CSSC[C@@H](C(=O)N(C)[C@@H](CCCCNC(=O)CCCCCNC(=O)C[N+](C)(C)CCNC(=O)CCCCCCCCCCCCCCCCC(=O)O)C(=O)N[C@H](C(=O)N[C@H](CCCCN)C(N)=O)C(c2ccccc2)c2ccccc2)NC1=O)C(c1ccccc1)c1ccccc1)[C@@H](C)O [compound 232] (Isovaleryl-E(OMe)TH[Dip]PCC[NMeK]([Ahx-X1])[Dip][dK]-NH2; disulfide 6-7) | 10 to 100 nM |

Let us examine a further case.
Which DC50 value is on record for CC(C)CC(=O)N[C@@H](CCC(=O)O)C(=O)N[C@H](C(=O)N[C@@H](Cc1c[nH]cn1)C(=O)N[C@H](C(=O)N1CCC[C@H]1C(=O)N[C@H]1CSSC[C@@H](C(=O)N(C)[C@@H](CCCCNC(=O)COCCOCCNC(=O)COCCOCCNC(=O)[C@H](CN)NC(=O)CCCCCCCCCCCCCCCCC(=O)O)C(=O)N[C@H](CC(=O)N[C@H](CCCCN)C(N)=O)Cc2ccccc2)NC1=O)C(c1ccccc1)c1ccccc1)[C@@H](C)O [compound 306] (Isovaleryl-ETH[Dip]PCC[NMeK]([AEEA-AEEA-Dap-C18 diacid])[β3hF][dK]-NH2; disulfide 6-7) ?
10 to 100 nM
